Tested on: P12-Ichikawa
method summary: cell viability relative to DMSO control; higher = less cytotoxic
protocol conditions: HPLM + 10% dialyzed FBS; 48 h; 0.0211 µM
So I've got a bunch of compounds here, and I need their cell viability values.

// solved cases for cell viability follow
COc1nc(-c2ccc3c(c2)OCO3)n(-c2ccc(NC(=O)CSc3ccccc3)cc2)n1: 107%
Nc1ccccc1NC(=O)c1ccc(CNc2nccc(-c3cccnc3)n2)cc1: 113%
Cc1cc2c(C(C)C)c(O)c(O)c(C=O)c2c(O)c1-c1c(C)cc2c(C(C)C)c(O)c(O)c(C=O)c2c1O: 113%
CC(C)OC(=O)CCC/C=C\C[C@@H]1[C@@H](/C=C/[C@@H](O)COc2cccc(C(F)(F)F)c2)[C@H](O)C[C@@H]1O: 127%
COc1cc(N2CCC(O)CC2)ccc1Nc1cc(Nc2ccccc2[S+](=O)([O-])C(C)C)c2cc[nH]c2n1: 91.3%

Parameter requested: cell viability. Apply to each item below.
1. O=C1CSC(=O)N1C(CCc1ccncc1)COc1ccc(-c2cccc([N+](=O)[O-])c2)cc1 (stereo not drawn)
2. O=C(O)c1ccccc1C(=O)Nc1ccc(-c2ccccc2)cc1
3. CCC[C@@H]1C[C@@H](C(=O)N[C@@H]([C@H]2O[C@H](SC)[C@H](O)[C@@H](O)[C@H]2O)[C@@H](C)O)N(C)C1.Cl

[out]
1. 118%
2. 124%
3. 111%

---

System: NOMO1
method summary: cell viability relative to DMSO control; higher = less cytotoxic
protocol conditions: RPMI 5 mM glucose + 10% dialyzed FBS; 48 h; 15.4 µM
Labelling: cell viability reported below 90% becomes label 1; at or above becomes label 0.

Check out these entries, answers already filled in.
Cc1ccc(-n2nc(C(C)(C)C)cc2NC(=O)Nc2ccc(OCCN3CCOCC3)c3ccccc23)cc1: label 0
CO/N=C(/C(=O)N[C@@H]1C(=O)N2C(C(=O)O)=C(Cn3ccc(=N)n3CCO)CS[C@H]12)c1csc(N)n1: label 0
Fc1cc(-c2cccc3ncc(-c4cnn(C5CCNCC5)c4)nc23)cc(F)c1CN1CCOCC1: label 1
CNC(=O)[C@H](Cc1ccccc1)NC(=O)[C@H](CC(C)C)[C@H](CSc1cccs1)C(=O)NO: label 1
O=C1\C=C(/OC2=C1C=CC=C2C3=CC=CC=C3)N4CCOCC4: label 1

[in] Determine whether this compound shows cell viability lower than 90% (ties excluded): `O=C1c2c(O)cccc2[C@H]([C@@H]2O[C@H](CO)[C@@H](O)[C@H](O)[C@H]2O)c2cc(CO)cc(O)c21`
[out] label 1

[in] Determine whether this compound shows cell viability lower than 90% (ties excluded): CCOC(=O)C/1=C(C)/NC(=S)NC1C2=CC=CC(=C2)O (configuration not stated)
[out] label 1

---

System: P12-Ichikawa
method summary: cell viability relative to DMSO control; higher = less cytotoxic
protocol conditions: RPMI 5 mM glucose + 10% FBS; 48 h; 0.000781 µM
value type: cell viability (%)
Answers are plain numbers, in %.

Parameter requested: cell viability. Apply to each item below.
1. O=C(NC1CCOCC1)c1ccc(-c2cc(-c3c[nH]nc3-c3ccccn3)ccn2)cc1
2. O=C1CSC(=O)N1C(CCc1ccncc1)COc1ccc(-c2cccc([N+](=O)[O-])c2)cc1 (stereo unspecified)
3. COC(=O)N1CCN(Cc2cccc(NC(=O)Nc3ccc(C)nc3)c2F)CC1
4. O=C(O)[C@H](Cc1c[nH]c2ccccc12)N1C(=O)c2ccccc2C1=O
5. CCOC(=O)Nc1ccc(NCc2ccc(F)cc2)cc1N

[out]
104
122
96.6
89.6
113

Parameter requested: cell viability. Apply to each item below.
1. Cc1cc2c(C(C)C)c(O)c(O)c(C=O)c2c(O)c1-c1c(C)cc2c(C(C)C)c(O)c(O)c(C=O)c2c1O
2. C[N]1C=NC=C1[C@@](N)(C2=CC=C(Cl)C=C2)C3=CC=C4N(C)C(=O)\C=C(\C5=CC=CC(=C5)Cl)C4=C3
3. ClC1=CC=C(CCCOC/2=N/NC(=O)C(=C2NCC3=CN=CC=C3)/Br)C=C1
4. CN(N=O)C(=O)N[C@H]1C(O)OC(CO)[C@@H](O)[C@@H]1O (stereo partly specified)
5. CO[C@H]1C[C@@H]2CC[C@@H](C)[C@@](O)(O2)C(=O)C(=O)N2CCCC[C@H]2C(=O)O[C@H]([C@H](C)C[C@@H]2CC[C@@H](OP(C)(C)=O)[C@H](OC)C2)CC(=O)[C@H](C)/C=C(\C)[C@@H](O)[C@@H](OC)C(=O)[C@H](C)C[C@H](C)/C=C/C=C/C=C/1C
6. CCOC(=O)C/1=C(C)/NC(=S)NC1C2=CC=CC(=C2)O (stereo unspecified)
7. CC(C)C[C@H](CN)CC(=O)O

[out]
1: 117; 2: 110; 3: 109; 4: 83.3; 5: 119; 6: 106; 7: 99.4
